Sourced from PubChem BioAssay (Tox21)

test-details: qHTS assay to test for compound auto fluorescence at 535 nm (green) in HepG2 cell free culture (AID 720686)
condition: Cell-free medium, green autofluorescence 485/535 nm; series mostly up to 46 µM
Source text: U.S. Tox21 Program National Center for Advancing Translational Sciences [NCATS] NIH Chemical Genomics Center [NCGC] U.S. Environmental Protection Agency [EPA] National Institutes of Environmental Health Sciences [NIEHS] National Toxicology Program [NTP] U.S. Food and Drug Administration [FDA] Tox21 Assay Overview: Compound auto fluorescence often interferes with screening of the compound library against various biological targets and signaling pathways. […] This assay includes the green fluorescence data. […]
Activity calls are given as the source filed them. The call rests on the fitted dose curve; in most records, active means well fitted curve in the direction sought with a large enough effect in the repeat runs; inconclusive means weak or mixed curves; inactive means flat fitted curve, though single readings scatter.
Valid outcomes are listed here; reply with one: T for active, F for inactive

Some solved cases for reference:
# compound, answer-label
records = [
    ("S=C=Nc1ccc(N=C=S)cc1", "F"),
    ("CC(=O)Oc1cccc(C(=O)O)c1OC(C)=O", "F"),
    ("C=C[C@]1(C)C[C@@H](OC(=O)CSC(C)(C)CNC(=O)[C@H](N)C(C)C)[C@]2(C)[C@H](C)CC[C@]3(CCC(=O)[C@H]32)[C@@H](C)[C@@H]1O", "F"),
    ("C#C[C@]1(O)CC[C@H]2[C@@H]3CCC4=C/C(=N/O)CC[C@@H]4[C@H]3CC[C@@]21CC", "F"),
    ("CO/N=C(\\C(=O)N[C@@H]1C(=O)N2C(C(=O)O)=CCS[C@H]12)c1csc(N)n1", "F"),
    ("CCCCOC(=O)C(=O)Nc1cccc(-c2nn[nH]n2)c1", "F"),
    ("CC(C)=CCC/C(C)=C/C=C/C(C)=C/C=C/C(C)=C/C=C/C=C(C)/C=C/C=C(C)/C=C/C=C(\\C)CCC=C(C)C", "F"),
    ("O=C1CSC2(CCN(CCCN3c4ccccc4Sc4ccc(Cl)cc43)CC2)N1", "F"),
    ("C[N+]1(C)CCN(CC(O)(c2ccccc2)C2CCCCC2)CC1 (centres undefined)", "F"),
    ("C[C@H](CSC(=O)c1ccccc1)C(=O)N1C[C@@H](Sc2ccccc2)C[C@H]1C(=O)O", "F"),
]

Request: Could you check what this test reported for CCCCCCOc1ccc(C(=N)N(CCCC)CCCC)c2ccccc12 ?
Response: F

Request: Could you check what this test reported for CC(=O)OCC(=O)[C@@]1(O)[C@H](C)C[C@H]2[C@@H]3C[C@H](F)C4=CC(=O)C=C[C@]4(C)[C@H]3[C@@H](O)C[C@@]21C ?
Response: F

Request: Could you check what this test reported for COC(=O)[C@H]1[C@H]2C[C@@H]3c4[nH]c5cc(OC)ccc5c4CCN3C[C@H]2C[C@H](OC)[C@@H]1OC ?
Response: F

Request: Could you check what this test reported for COc1ccc(CCNC[C@H](O)c2ccc(O)cc2)cc1OC ?
Response: F

Request: Could you check what this test reported for CCCC(=O)Nc1ncnc2c1ncn2[C@@H]1O[C@@H]2COP(=O)(O)O[C@H]2[C@H]1OC(=O)CCC ?
Response: F

Request: Could you check what this test reported for O=C(O)[C@H](CC(=O)N1C[C@H]2CCCC[C@H]2C1)Cc1ccccc1 ?
Response: F

Request: Could you check what this test reported for CC1(C)C2CC[C@]3(C)[C@H](C(=O)C=C4[C@@H]5C[C@@](C)(C(=O)O)CC[C@]5(C)CC[C@]43C)[C@@]2(C)CC[C@@H]1O[C@H]1O[C@H](C(=O)O)[C@@H](O)[C@H](O)[C@H]1O[C@@H]1O[C@H](C(=O)O)[C@@H](O)[C@H](O)[C@H]1O (some centres undefined) ?
Response: F

Request: Could you check what this test reported for COc1cc(S(C)=O)ccc1-c1nc2ncccc2[nH]1 (centres undefined) ?
Response: F

Request: Could you check what this test reported for C=CC1=C(C)C2=CC3=NC(=C(CC(=O)[O-])C4=NC(=C(C)C4=C([O-])[O-])C=c4[n-]c(c(C)c4CC)=CC1=N2)C(CCC(=O)[O-])C3C.[Cu+2].[Na+].[Na+].[Na+] (centres undefined) ?
Response: F

Request: Could you check what this test reported for S=C1SCN(Cc2ccccc2)CN1Cc1ccccc1 ?
Response: F
